target or test system: OXA-48 (Class D beta-lactamase) (Klebsiella pneumoniae, UniProt Q6XEC0)
Sequence (Q6XEC0 whole entry, looked up, species assumed): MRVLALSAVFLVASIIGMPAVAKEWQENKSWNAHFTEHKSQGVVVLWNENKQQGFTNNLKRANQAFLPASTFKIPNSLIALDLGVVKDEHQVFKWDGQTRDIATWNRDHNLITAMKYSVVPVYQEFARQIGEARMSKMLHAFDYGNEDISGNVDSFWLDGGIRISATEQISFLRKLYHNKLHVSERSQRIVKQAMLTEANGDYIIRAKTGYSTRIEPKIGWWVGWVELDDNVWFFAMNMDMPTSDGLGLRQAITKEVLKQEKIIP
protocol summary: Inhibition of beta-lactamase enzymes (nitrocefin hydrolysis), OXA-48
particulars: read-out: Class D OXA-48 60 min IC50, nitrocefin 100 μM
pIC50: −log10 of the molar value. Where a name gives a salt, the structure may show the parent alone.
Binary call on pIC50: 1 from 7 upward, -1 beneath that.

Worked cases, answers included:
> print(dat)
                                   molecule                     target.or.test.system  category.label
1  CC1=C[C@@H]2CN(C(=O)N2OC(F)(F)C(=O)O)[C@@H]1C(N)=O [Example 8, lithium salt]  OXA-48 (Class D beta-lactamase) (Klebsiella pneumoniae, UniProt Q6XEC0)               1
2  CC1=C[C@@H]2CN(C(=O)N2OC(F)C(=O)O)[C@@H]1C(N)=O (mixture of isomers) [Example 5, lithium salt]  OXA-48 (Class D beta-lactamase) (Klebsiella pneumoniae, UniProt Q6XEC0)               1
3  CC(=O)NC[C@@H]1C(C)=C[C@@H]2CN1C(=O)N2O[C@@H](F)C(=O)O [Example 78, lithium salt]  OXA-48 (Class D beta-lactamase) (Klebsiella pneumoniae, UniProt Q6XEC0)              -1
4  CC1=C[C@@H]2CN(C(=O)N2OC(F)C(=O)O)[C@@H]1c1nnc(C(N)=O)o1 (stereo partly shown) [Example 55, lithium salt]  OXA-48 (Class D beta-lactamase) (Klebsiella pneumoniae, UniProt Q6XEC0)               1
5  CC1=C[C@@H]2CN(C(=O)N2O[C@@H](F)C(=O)O)[C@@H]1C(=O)NCCNS(C)(=O)=O [Example 67, lithium salt]  OXA-48 (Class D beta-lactamase) (Klebsiella pneumoniae, UniProt Q6XEC0)              -1

## Input Has CC1=C[C@@H]2CN(C(=O)N2O[C@@H](F)C(=O)O)[C@@H]1C(=O)NCCS(N)(=O)=O [Example 57, lithium salt] a recorded pIC50 greater than or equal to 7?
## Output -1

## Input Evaluate CC1=C[C@@H]2CN(C(=O)N2O[C@@H](F)C(=O)O)[C@@H]1C(=O)NCCNS(N)(=O)=O [Example 75, lithium salt] : pIC50 at minimum 7?
## Output -1

## Input # check: pIC50 of CC1=C[C@@H](C(N)=O)N2C[C@@H]1N(OC(F)(F)C(=O)O)C2=O [Example 91, lithium salt] is greater than or equal to 7
## Output 1

## Input # check: pIC50 of CC1=C[C@@H]2CN(C(=O)N2OCC(=O)O)[C@@H]1C(N)=O [Example 10, lithium salt] is greater than or equal to 7
## Output 1

## Input Hello, I need to know if CC1=C[C@@H](C(N)=O)N2C[C@@H]1N(OCC(=O)O)C2=O [Example 93, lithium salt] has measured pIC50 not below 7. Thanks!
## Output 1

---

Test system: E. coli WT (ATCC 25922)
protocol summary: MIC, CLSI broth microdilution, beta-lactam with or without BLI
Format: cell-based
particulars: no BLI
I'd appreciate it if you could supply MIC of beta-lactam alone values for the items below.
Numbers only, in µg/mL.

Some compounds with known MIC of beta-lactam alone results, for comparison:
> print(dat)
                                   compound    target.or.test.system                 parameter  observed.value
1  C=CC1=C(C(=O)O)N2C(=O)[C@@H](NC(=O)/C(=N\OCC(=O)O)c3csc(N)n3)[C@H]2SC1 [Cefixime, cefixime, reference compound]  E. coli WT (ATCC 25922)  MIC of beta-lactam alone             0.5
2  CO/N=C(\C(=O)N[C@@H]1C(=O)N2C(C(=O)O)=C(COC(N)=O)CS[C@H]12)c1ccco1 [Cefuroxime, cefuroxime, reference compound]  E. coli WT (ATCC 25922)  MIC of beta-lactam alone               4
3  CC1(C)[C@H](NC(=O)/C(=N\OCC(=O)O)c2csc(N)n2)C(=O)N1OS(=O)(=O)O [Tigemonam, tigemonam, reference compound]  E. coli WT (ATCC 25922)  MIC of beta-lactam alone               1

Turning now to a further record.
## Input Which MIC of beta-lactam alone reading was recorded for the compound N[C@@H](C(=O)N[C@@H]1C(=O)N2C(C(=O)O)=C(Cl)CC[C@H]12)c1ccccc1 [Loracarbef, loracarbef, reference compound] ?
## Output 2

---

target or test system: TEM-1 (Class A beta-lactamase) (Escherichia coli, UniProt P62593)
Sequence (P62593 whole entry, looked up, species assumed): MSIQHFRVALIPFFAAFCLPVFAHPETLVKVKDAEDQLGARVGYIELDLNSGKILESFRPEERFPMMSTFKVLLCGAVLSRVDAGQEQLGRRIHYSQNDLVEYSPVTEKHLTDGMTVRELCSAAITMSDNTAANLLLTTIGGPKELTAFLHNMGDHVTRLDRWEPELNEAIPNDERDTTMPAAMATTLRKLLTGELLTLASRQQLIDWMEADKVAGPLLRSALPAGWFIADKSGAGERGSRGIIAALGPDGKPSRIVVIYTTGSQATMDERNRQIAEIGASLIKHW
protocol summary: Inhibition of beta-lactamase enzymes (nitrocefin hydrolysis), TEM-1
particulars: read-out: Class A TEM-1 60 min IC50, nitrocefin 100 μM
Where a name gives a salt, the structure may show the parent alone.
parameter: pIC50
Answers are plain numbers, as −log10 of the molar value.

Guide cases for pIC50, answers given:
> print(dat)
                                   compound  parameter  observed.value
1  CC1=C[C@@H](C(N)=O)N2C[C@@H]1N(O[C@@H](F)C(=O)O)C2=O [Example 34, lithium salt]      pIC50            7.59
2  CC1=C[C@@H]2CN(C(=O)N2O[C@@H](F)C(=O)O)[C@@H]1C(=O)NCNS(N)(=O)=O [Example 89, lithium salt]      pIC50            7.48

With those in mind, consider the next compound.
## Input Fill in: pIC50 of CC1=C[C@@H]2CN(C(=O)N2O[C@@H](F)C(=O)O)[C@@H]1C(=O)NCCCS(N)(=O)=O [Example 74, lithium salt] is ___
## Output 6.55

---

Test system: C. freundii AmpC, TEM-1, CMY65
protocol summary: MIC, CLSI broth microdilution, beta-lactam with or without BLI
Format: cell-based
particulars: BLI at fixed 4 μg/ml
Counter-ions that a name gives are not always drawn.
For each record, write down the corresponding MIC of cefuroxime in presence of BLI.
One number for each entry, in mg/L.

> print(dat)
                                   compound           target.or.test.system  observed.value
1  CC1=C[C@@H]2CN(C(=O)N2O[C@H](F)C(=O)O)[C@@H]1C(N)=O [Example 4, lithium salt]  C. freundii AmpC, TEM-1, CMY65            0.02

Shift focus to the following entry.
## Input # query: MIC of cefuroxime in presence of BLI of entry CC1=C[C@@H]2CN(C(=O)N2O[C@@H](F)C(=O)O)[C@@H]1C(N)=O [Example 3, lithium salt]
## Output 1

---

protocol summary: Stability/conversion of esters in rat liver S9
Type: in vitro ADME
particulars: liver S9, pH 7.4, read-out: T1/2 Rat Liver S9
Record form. Attribute: half-life at 10 μM. Fill in for each entry.
Give bare numbers, in min.

> print(dat)
                            smiles.notation  unit.annotation  observed.value
1  COCCOC(=O)[C@@H](F)ON1C(=O)N2C[C@H]1C=C(C)[C@H]2C(N)=O              min               7
2  CC1=C[C@@H](C(N)=O)N2C[C@@H]1N(OCC(=O)OC(C)C)C2=O              min            10.3
3  CCOC(=O)CON1C(=O)N2C[C@H]1C=C(C)[C@H]2C(N)=O              min             1.4

## Input Can you share its half-life at 10 μM? I mean this molecule: CCCOC(=O)[C@@H](F)ON1C(=O)N2C[C@H]1C=C(C)[C@H]2C(N)=O
## Output 3

---

Assignment: determine reported half-life at 10 μM for the given molecules.
protocol summary: Stability/conversion of esters in rat intestinal S9
Assay type: in vitro ADME
particulars: s9, pH 7.4, read-out: T1/2 Rat Intestinal S9
Numbers only, in min.

> print(dat)
                            smiles.notation           parameter  observed.value
1  CC[C@H](C)OC(=O)[C@@H](F)ON1C(=O)N2C[C@H]1C=C(C)[C@H]2C(N)=O  half-life at 10 μM              54
2  CC1=C[C@@H](C(N)=O)N2C[C@@H]1N(O[C@@H](F)C(=O)OC(C)C)C2=O  half-life at 10 μM              68
3  CC[C@@H](C)OC(=O)[C@@H](F)ON1C(=O)N2C[C@H]1C=C(C)[C@H]2C(N)=O  half-life at 10 μM              56

Then there is this molecule:
## Input Endpoint output: half-life at 10 μM of CCOC(=O)[C@@H](F)ON1C(=O)N2C[C@H]1C=C(C)[C@H]2C(N)=O . Value?
## Output 39

Origin of measurements: patent US10800778B2
